- experimental_system: cGMP-specific 3',5'-cyclic phosphodiesterase (Homo sapiens)
- assay: Selectivity ratio of the compound against PDE6 to that of PED5
measure: Selectivity ratio

Here's what some known entries look like.
O=C1[C@H]2Cc3c([nH]c4ccccc34)[C@@H](c3ccc4c(c3)OCO4)N2C(=O)CN1[C@@H]1CCN(CCc2ccccn2)C1 = 153
O=C(CCN1CC[C@@H](N2CC(=O)N3[C@H](c4ccc5c(c4)OCO5)c4[nH]c5ccccc5c4C[C@@H]3C2=O)C1)N1CCC1 = 211
CCNC(=O)CCN1CC[C@@H](N2CC(=O)N3[C@H](c4ccc5c(c4)OCO5)c4[nH]c5ccccc5c4C[C@@H]3C2=O)C1 = 172
Cn1ccnc1CCN1CC[C@@H](N2CC(=O)N3[C@H](c4ccc5c(c4)OCO5)c4[nH]c5ccccc5c4C[C@@H]3C2=O)C1 (stereo in doubt; form 1) = 640
CCCCCN1CC[C@@H](N2CC(=O)N3[C@H](c4ccc5c(c4)OCO5)c4[nH]c5ccccc5c4C[C@@H]3C2=O)C1 = 134

A. O=C1[C@H]2Cc3c([nH]c4ccccc34)[C@@H](c3ccc4c(c3)OCO4)N2C(=O)CN1[C@@H]1CCN(CCc2ncc[nH]2)C1
B. O=C1[C@H]2Cc3c([nH]c4ccccc34)[C@@H](c3ccc4c(c3)OCO4)N2C(=O)CN1[C@@H]1CCN(CCC2CC2)C1
Query: When the recorded Selectivity ratio values are compared, which is smaller: that of A or that of B ? Identify your selection by its label.
Reply: B
(B: 169, A: 300)

P. CN(C)C(=O)CCN1CC[C@@H](N2CC(=O)N3[C@H](c4ccc5c(c4)OCO5)c4[nH]c5ccccc5c4C[C@@H]3C2=O)C1
Q. O=C1[C@H]2Cc3c([nH]c4ccccc34)[C@@H](c3ccc4c(c3)OCO4)N2C(=O)CN1[C@@H]1CCN(CCc2cnccn2)C1
Query: Consider entries P and Q . Which has the numerically lower Selectivity ratio? Write down the label of the entry you select.
Reply: Q
(Q: 181, P: 316)

* * *

- experimental_system: Phosphodiesterase 6
- assay: Inhibitory activity against phosphodiesterase 6 (PDE6) obtained from canine or bovine retina
- Assay type: protein assay
measure: IC50 (nM)

CN(C)CCN1CC(=O)N2[C@H](c3ccc4c(c3)OCO4)c3[nH]c4ccccc4c3C[C@@H]2C1=O = 8224

a. O=C1[C@H]2Cc3c([nH]c4ccccc34)[C@@H](c3ccc4c(c3)OCO4)N2C(=O)CN1[C@@H]1CCN(CCc2ccccn2)C1
b. O=C1[C@H]2Cc3c([nH]c4ccccc34)[C@@H](c3ccc4c(c3)OCO4)N2C(=O)CN1[C@@H]1CCN(CCc2ncc[nH]2)C1
Query: Returns: the label, a or b , whose recorded IC50 is the lower number. Your choice should be expressed through its label.
Reply: a

* * *

Recorded IC50 values (cGMP-specific 3',5'-cyclic phosphodiesterase (Homo sapiens)) are given below.
measure: IC50 (nM)

CCCN1CC[C@@H](N2CC(=O)N3[C@H](c4ccc5c(c4)OCO5)c4[nH]c5ccccc5c4C[C@@H]3C2=O)C1 = 57
O=C1[C@H]2Cc3c([nH]c4ccccc34)[C@@H](c3ccc4c(c3)OCO4)N2C(=O)CN1[C@@H]1CCN(CCc2ccccn2)C1 = 1.5

1. COc1ccc([C@@H]2c3[nH]c4ccccc4c3C[C@@H]3C(=O)N([C@@H]4CCN(Cc5ccccc5)C4)CC(=O)N23)cc1C
2. CN(C)C(=O)CCN1CC[C@@H](N2CC(=O)N3[C@H](c4ccc5c(c4)OCO5)c4[nH]c5ccccc5c4C[C@@H]3C2=O)C1
Query: Among 1 and 2 , which shows a numerically higher IC50 result? The response must carry the label of the picked entry.
Reply: 1

a. CCNC(=O)CCN1CC[C@@H](N2CC(=O)N3[C@H](c4ccc5c(c4)OCO5)c4[nH]c5ccccc5c4C[C@@H]3C2=O)C1
b. COCCCN1CC[C@@H](N2CC(=O)N3[C@H](c4ccc5c(c4)OCO5)c4[nH]c5ccccc5c4C[C@@H]3C2=O)C1
Query: Quick check, higher IC50 between a and b ? Kindly state the label of the option you pick.
Reply: b

* * *

- experimental_system: Dual 3',5'-cyclic-AMP and -GMP phosphodiesterase 11A (Homo sapiens)
- assay: Inhibitory activity against phosphodiesterase 11 (PDE11) obtained from recombinant Sf9 expression
measure: IC50 (nM)

COc1ccc([C@@H]2c3[nH]c4ccccc4c3C[C@@H]3C(=O)N([C@@H]4CCN(Cc5ccccc5)C4)CC(=O)N23)cc1 = 6.7
O=C1[C@H]2Cc3c([nH]c4ccccc34)[C@@H](c3ccc4c(c3)OCO4)N2C(=O)CN1[C@@H]1CCN(CCc2cnccn2)C1 = 4.2
O=C1[C@H]2Cc3c([nH]c4ccccc34)[C@@H](c3ccc4c(c3)OCO4)N2C(=O)CN1[C@@H]1CCN(CCC2CC2)C1 = 43

A. COc1cccc([C@@H]2c3[nH]c4ccccc4c3C[C@@H]3C(=O)N([C@@H]4CCN(Cc5ccccc5)C4)CC(=O)N23)c1 (stereo in doubt; form 1)
B. COc1ccc([C@@H]2c3[nH]c4ccccc4c3C[C@@H]3C(=O)N([C@@H]4CCN(Cc5ccccc5)C4)CC(=O)N23)cc1C
C. Cc1ccc([C@@H]2c3[nH]c4ccccc4c3C[C@@H]3C(=O)N([C@@H]4CCN(Cc5ccccc5)C4)CC(=O)N23)cc1
D. O=C1[C@H]2Cc3c([nH]c4ccccc34)[C@@H](c3ccc4c(c3)OCO4)N2C(=O)CN1[C@@H]1CCN(CCc2cccnc2)C1
Query: Order field: IC50 | Direction: descending (largest first) Your reply should list the labels following the order given in the request.
Reply: B, A, C, D

* * *

- experimental_system: Phosphodiesterase 6
- assay: Inhibitory activity against phosphodiesterase 6 (PDE6) obtained from canine or bovine retina
- Format: protein assay
measure: IC50 (nM)

CCCCCN1CC[C@@H](N2CC(=O)N3[C@H](c4ccc5c(c4)OCO5)c4[nH]c5ccccc5c4C[C@@H]3C2=O)C1 = 1770

I. O=C1[C@H]2Cc3c([nH]c4ccccc34)[C@@H](c3ccc4c(c3)OCO4)N2C(=O)CN1CCN1CCOCC1
II. O=C1[C@H]2Cc3c([nH]c4ccccc34)[C@@H](c3ccc4c(c3)OCO4)N2C(=O)CN1[C@@H]1CCN(CCc2cccnc2)C1
Query: // select label with min value of measured IC50 from [ I , II ] # answer = label of selected item
Reply: II

* * *

- assay: Relative inhibitoin of PDE11 and PDE5
measure: Selectivity ratio

COc1cccc([C@@H]2c3[nH]c4ccccc4c3C[C@@H]3C(=O)N([C@@H]4CCN(Cc5ccccc5)C4)CC(=O)N23)c1 (stereo in doubt; form 1) = 1.5

1. O=C1[C@H]2Cc3c([nH]c4ccccc34)[C@@H](c3ccc(O)nc3)N2C(=O)CN1[C@@H]1CCN(Cc2ccccc2)C1
2. COc1ccc([C@@H]2c3[nH]c4ccccc4c3C[C@@H]3C(=O)N([C@@H]4CCN(Cc5ccccc5)C4)CC(=O)N23)cc1
Query: So which one has the bigger Selectivity ratio here, 1 or 2 ? State your choice using its label.
Reply: 2

P. COc1cccc([C@@H]2c3[nH]c4ccccc4c3C[C@@H]3C(=O)N([C@@H]4CCN(Cc5ccccc5)C4)CC(=O)N23)c1 (stereo in doubt; form 2)
Q. COc1ccc([C@@H]2c3[nH]c4ccccc4c3C[C@@H]3C(=O)N([C@@H]4CCN(Cc5ccccc5)C4)CC(=O)N23)cc1C
Query: Lab note: record which item had the higher Selectivity ratio, P or Q . // caller expects the label of the chosen entry
Reply: P
(P: 0.8, Q: 0.5)

* * *

- experimental_system: Dual 3',5'-cyclic-AMP and -GMP phosphodiesterase 11A (Homo sapiens, UniProt Q9HCR9)
- Sequence (Q9HCR9 whole entry): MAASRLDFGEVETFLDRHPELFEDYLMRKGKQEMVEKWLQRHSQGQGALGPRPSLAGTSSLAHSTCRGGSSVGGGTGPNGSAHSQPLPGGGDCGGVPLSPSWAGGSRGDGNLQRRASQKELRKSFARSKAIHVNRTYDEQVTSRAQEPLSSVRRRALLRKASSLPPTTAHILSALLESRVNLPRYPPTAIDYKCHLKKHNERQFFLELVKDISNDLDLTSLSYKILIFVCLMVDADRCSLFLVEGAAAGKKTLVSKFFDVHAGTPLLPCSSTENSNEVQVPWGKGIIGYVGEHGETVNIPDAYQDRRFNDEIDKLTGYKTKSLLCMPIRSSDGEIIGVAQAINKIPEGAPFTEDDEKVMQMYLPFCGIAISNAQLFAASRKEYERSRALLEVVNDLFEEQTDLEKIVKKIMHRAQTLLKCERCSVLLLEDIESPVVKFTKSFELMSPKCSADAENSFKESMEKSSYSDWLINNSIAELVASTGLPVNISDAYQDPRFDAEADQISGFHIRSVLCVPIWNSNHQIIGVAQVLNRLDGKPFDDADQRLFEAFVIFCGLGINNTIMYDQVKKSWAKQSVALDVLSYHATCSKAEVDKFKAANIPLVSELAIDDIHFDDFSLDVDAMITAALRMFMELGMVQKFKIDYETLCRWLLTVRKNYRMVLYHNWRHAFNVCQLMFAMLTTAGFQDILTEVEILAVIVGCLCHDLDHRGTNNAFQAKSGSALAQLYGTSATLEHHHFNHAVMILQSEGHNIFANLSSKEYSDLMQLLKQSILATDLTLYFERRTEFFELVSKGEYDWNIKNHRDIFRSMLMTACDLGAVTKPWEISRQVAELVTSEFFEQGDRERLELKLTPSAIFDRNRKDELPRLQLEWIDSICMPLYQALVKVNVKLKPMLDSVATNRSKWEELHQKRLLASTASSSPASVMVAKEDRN
- assay: Inhibitory activity against phosphodiesterase 11 (PDE11) obtained from recombinant Sf9 expression
pIC50: −log10 of the molar value.
measure: pIC50

CCCCCN1CC[C@@H](N2CC(=O)N3[C@H](c4ccc5c(c4)OCO5)c4[nH]c5ccccc5c4C[C@@H]3C2=O)C1 = 7.51

P. CN(C)CC(=O)CN1CC[C@@H](N2CC(=O)N3[C@H](c4ccc5c(c4)OCO5)c4[nH]c5ccccc5c4C[C@@H]3C2=O)C1
Q. CN(C)C(=O)CCN1CC[C@@H](N2CC(=O)N3[C@H](c4ccc5c(c4)OCO5)c4[nH]c5ccccc5c4C[C@@H]3C2=O)C1
R. Cn1ccnc1CCN1CC[C@@H](N2CC(=O)N3[C@H](c4ccc5c(c4)OCO5)c4[nH]c5ccccc5c4C[C@@H]3C2=O)C1 (stereo in doubt; form 1)
Query: Task field, ranking: reported pIC50, descending order. Response format: the labels, sorted as the prompt asks.
Reply: R, Q, P
(R: 8.66, Q: 8.33, P: 7.32)

1. O=C1[C@H]2Cc3c([nH]c4ccccc34)[C@@H](c3ccc4c(c3)OCO4)N2C(=O)CN1[C@@H]1CCN(Cc2ccccc2)C1
2. Cn1ccnc1CCN1CC[C@@H](N2CC(=O)N3[C@H](c4ccc5c(c4)OCO5)c4[nH]c5ccccc5c4C[C@@H]3C2=O)C1 (stereo in doubt; form 2)
Query: Smaller pIC50 value? Options are 1 and 2 Return value: the label identifying the chosen record.
Reply: 1
